target: ZFP SBS#1192 (synthetic); assay: EMSA; conditions: tags: MBP fusion
Sequence (chain, as listed by the source): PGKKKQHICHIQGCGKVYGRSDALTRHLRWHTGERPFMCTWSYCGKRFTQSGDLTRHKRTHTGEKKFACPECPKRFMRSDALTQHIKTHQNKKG
Readout Kind: Kd (nM)
One number for each entry, in nM.

Given ATGGCAGTG (dsDNA) DNA 1: ATGGCAGTG DNA 2: CACTGCCAT , state its recorded Kd.
2.36
